measure_name: melting point

INSERT INTO results (molecule, test_result) VALUES
  ('NC(=O)C(N)N=Nc1ccccc1C(=O)c1ccccn1 (stereo not given)', '210 to 212 °C'),
  ('CCNc1nc2ccc(COc3cccc(CN4CCCCC4)c3)cc2o1', '105 to 106 °C'),
  ('CC1(C)CC(=O)C(SCc2ccc([N+](=O)[O-])cc2)=C(O)C1', '140 to 142 °C'),
  ('CCOC(=O)c1cnn(-c2ccc(OC)cc2)c1Cl', '100 to 101 °C'),
  ('COc1ccc(CCN)cc1S(N)(=O)=O', '164 to 167 °C');

Task item: Entry c1cc(Cc2cc3ccccc3[nH]2)cc(-c2cc3ccccc3[nH]2)c1 : reported melting point = ?
Reply: 193 to 194 °C

Task item: Could you do the same for O=C(CN(C(=O)c1cccc(C(F)(F)F)c1)c1ccccc1)Nc1ccc(Cl)c(Cl)c1 , please?
Reply: 130 to 132 °C

Task item: Quick one: Cc1cc(OCCc2nc(-c3ccccc3)oc2C)ccc1OC(C)(C)C(=O)O
Reply: 117 °C

Task item: Now give it for N#CC(c1ccccc1)c1cn[nH]c1 (racemic) too.
Reply: 124 to 127 °C

Task item: What do you get for CCc1noc(-c2cn(-c3ccc(Cl)cn3)cn2)n1 ?
Reply: 224 to 226 °C

---

measure_name: melting point

INSERT INTO measurements (compound, test_result) VALUES
  ('COc1ccc(-c2cc(N3CCOCC3)cc(=O)o2)cc1', '212 to 213 °C'),
  ('O=[N+]([O-])c1ccc(F)cc1CS(=O)(=O)c1cccc2ccccc12', '155 to 160 °C'),
  ('COC(=O)[C@@H](NC(=O)OC(C)(C)C)[C@H](O)c1ccccc1', '101 to 102 °C'),
  ('COc1cccc2nc(-c3cc(C)c(OCCN4CCCC4)c(C)c3)[nH]c(=O)c12', '157 to 158 °C');

Next:
Task item: melting point lookup needed for CC(C)(C)OC(=O)C1CC(Cc2ccccc2)C(=O)N1C(=O)OC(C)(C)C (stereo not given) , thanks.
Reply: 125 °C

---

Listed next: entries and their corresponding melting point.

INSERT INTO measurements (compound, test_result) VALUES
  ('C=CCNC(=O)NS(=O)(=O)c1ccccc1OC(Cl)=CCl', '187 to 188 °C');

Task item: melting point for COc1cc(-c2nc3ccccc3n2Cc2ccccc2C(F)(F)F)cc(OC)c1OC ?
Reply: 144 °C

---

Here the recorded melting point is given for each entry.

INSERT INTO assay_data (compound, test_result) VALUES
  ('COc1ccc(NC(=O)N(C)Cc2cccc3c2CN(C2CCC(=O)NC2=O)C3=O)cc1 (stereo not given)', '245 to 247 °C');

Task item: melting point for O=C(COc1cc(C(=O)N2CCOCC2)ccc1[N+](=O)[O-])c1ccccc1 ?
Reply: 172 to 173 °C

Task item: // next record O=C1NC(=O)C(Cc2ccc(OCCNc3ncccn3)cc2)S1 (stereo not given)
Reply: 173 °C

Task item: Also, COc1cc(C=Cc2nc3c(s2)NCCCC3)ccc1O please.
Reply: 175 to 178 °C

Task item: # iterate: CC1(C)OC(=O)C(C(=O)Nc2ccc(Cl)c(Cl)c2)=C(O)O1
Reply: 132 to 134 °C

---

measure_name: melting point

INSERT INTO results (compound, test_result) VALUES
  ('O=C(CCS(=O)C(c1ccccc1)c1ccccc1)NO (centres undefined)', '159 to 160 °C');

Task item: Name the recorded melting point for CC(=O)NCc1ccc(CN2CCN(c3ccccn3)CC2)cc1 .
Reply: 100 to 101 °C

Task item: And CCOC(=O)c1cc2n(c1)CN(C(=O)OCC)c1ccc(Br)cc1-2 ?
Reply: 161 to 163 °C

Task item: Further, for CCN(CC)CCCCC1CCN(CC(=O)N2c3ccccc3NC(=O)c3c2ccn3C)CC1 ?
Reply: 198 °C

---

Listing of recorded melting point by entry.

// solved cases for melting point follow
INSERT INTO assay_data (compound, test_result) VALUES
  ('O=C(O)c1cc(-c2ccc(OCc3ccccc3)cc2)c(=O)n2ccc3ccsc3c12', '197 to 199 °C'),
  ('CCCNCc1ccc(-c2cc3ncnc(Nc4ccc5[nH]ccc5c4)c3s2)cc1', '190 to 205 °C'),
  ('N#Cc1c(Cl)c(Cl)c(Oc2ccccc2)c(Cl)c1C#N', '147 to 150 °C'),
  ('CN1CCCC1=NC(=O)Nc1ccc(Br)cc1', '134 to 136 °C'),
  ('Cc1c(SCc2ccco2)ccnc1CO', '60 to 62 °C');

Task item: Entry under review: CC(=O)Oc1ccccc1C(=O)C1c2ccccc2C(=O)N1CCO[N+](=O)[O-] (stereo not drawn) . Reported melting point?
Reply: 81 to 83 °C

---

measure_name: melting point

These recorded examples may help you get a feel for the data.
INSERT INTO assay_data (compound, measure_name, test_result) VALUES
  ('OCCCc1conc1-c1ccc(Cl)c(F)c1', 'melting point', '54 to 55 °C'),
  ('CN(Cc1ccccc1Sc1nc2ccccc2[nH]1)c1ccccc1', 'melting point', '168 to 169 °C'),
  ('CCOC(=O)n1c(C(=O)c2ccc(F)cc2)c(NC(C)=O)c2ccc(Cl)cc21', 'melting point', '196 to 198 °C');

Now consider a different compound.
Task item: Quick one: melting point for COc1cc(C)c2nc3cccc(OC)c3nc2c1 ?
Reply: 201 to 202 °C

---

measure_name: melting point

INSERT INTO results (compound, measure_name, test_result) VALUES
  ('COc1ccc(C2Cc3cc(C(F)(F)F)ccc3NC(=O)C2COS(=O)(=O)c2ccc(C)cc2)cc1 (stereo not drawn)', 'melting point', '170 to 172 °C'),
  ('O=[N+]([O-])c1ccc2nc3c(nc2c1)OCC1CCCCN31 (stereo not drawn)', 'melting point', '151 to 154 °C'),
  ('O=[N+]([O-])c1ccc(O)c(Cn2c(=S)sc3ccccc32)c1', 'melting point', '231 °C'),
  ('COc1ccc2c(c1)c(CC(=O)NCC(C)(C)S)c(C)n2C(=O)c1ccc(Cl)cc1', 'melting point', '177 to 178 °C');

Task item: I am curious: what melting point value has been reported for N#CCCNCCCC(=O)O ?
Reply: 122 to 124 °C

Task item: Note, next up: CC1(C)CC(N(C=O)C2CCCCC2)CC(C)(C)N1
Reply: 105 °C

Task item: Queued: Cc1c(C)n(CC2CC2)c2c(OCc3ccccc3)nncc12
Reply: 123 to 124 °C

Task item: Entry to check: CC(=O)N[C@@H](C)COc1ccc(-c2nc3ccc(OCC4CC4)cc3o2)nc1
Reply: 179 to 180 °C

Task item: For COc1cc(O)ccc1N then?
Reply: 168 to 170 °C

Task item: Also O=C1Nc2cc(Cl)ccc2C(=O)C1c1ccsc1 (stereo not drawn) , if possible.
Reply: 341 to 344 °C

Task item: Try Cc1ccc(Nc2c([N+](=O)[O-])ccc(Cl)c2C(=O)O)cc1 next.
Reply: 192 to 197 °C

Task item: What do you have for COC(=O)[C@H]1Cc2c([nH]c3ccccc23)[C@@H](c2ccc3c(c2)OCO3)N1 ?
Reply: 154 to 155 °C

Task item: Param item: Cc1cc(OCc2ccccc2)cc(OCC2CCCCC2)c1C(=O)O
Reply: 127 to 128 °C

Task item: And then CCN1C(=O)CCCc2c1ccc(Nc1ncc(Cl)c(Nc3ccccc3C(=O)NC)n1)c2OC , what is it?
Reply: 225 to 227 °C

Task item: Again, but for CCc1nc2c(N)nc(C)c(C)c2n1CCOCCNC(=O)NC(=O)c1ccccc1
Reply: 185 to 187 °C

Task item: And for CC(C)(C)c1nc(-c2ncn3c2COC(=O)c2ccccc2-3)no1 ?
Reply: 210 to 211 °C

Task item: Quick one: CN1CC2(CCN(Cc3ccccc3)CC2)OC1=O
Reply: 137 to 138 °C

Task item: Param item: CC(=O)c1ccc(-n2cnc(C)c2)cc1
Reply: 100 °C

---

Measured melting point values are reported for all entries that follow.

INSERT INTO results (molecule, measure_name, test_result) VALUES
  ('CCOC(=O)COc1c(C(C)C)cc(C(O)(C(F)(F)F)C(F)(F)F)cc1C(C)C', 'melting point', '91 to 93 °C'),
  ('CC(C)c1ccc([N+](=O)[O-])c(C(C)C)c1NC(=O)CN1CCN(CCSc2nc3cccc(C(F)(F)F)c3o2)CC1', 'melting point', '115 to 117 °C');

Task item: # lookup: melting point of NC1(Cc2ccc(C(=O)Nc3ccncc3)cc2)C=CC=CC1 (stereo not drawn)
Reply: 76.8 to 77.6 °C
